biological target: c-Src SH2; experiment: SH2 binding enrichment of the phosphorylated peptide, bacterial display (enrichment ratio); higher = better substrate or ligand; peptides without Tyr show the background;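 further: peptide library displayed on the E. coli surface as eCPX fusions, selected cells deep-sequenced, score is each peptide's frequency after selection divided by its frequency in the input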
measurement_kind: SH2 binding enrichment

> print(dat)
                             chain  target.system  observed.value
1         AELVQYYMEHH [PTPN11_Y80]      c-Src SH2           0.683
2  DLLMQHPKAQG [FAM83C_Y600_Y600H]      c-Src SH2           0.466
3          LASLIYNFVLF [AQP6_Y231]      c-Src SH2           0.692
4       RAADFYSQQMA [GBP6_Y334_YF]      c-Src SH2           0.506
